Would you kindly list inhibition for each of these molecules?
- Assay summary: M. tuberculosis H37Rv growth inhibitors, H37Rv strain (AID 1626);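 note: bacteria incubated seven days before Alamar blue readout; 0% = bacteria only wells and 100% = bacteria with antibiotic wells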
- Condition notes: stronger effect = higher value, concentration not given here
In all, about 220,000 compounds went through this assay and about 2,000 (0.91%) were called active. Another 2% or so got no clear call; they are omitted. Not all results are given here. Results with a measured potency or affinity are listed apart.
Answers are plain numbers, in %.

Cc1cc(NCCN2CCOCC2)n2nc(C)c(-c3ccc(Cl)cc3)c2n1 :: 17.9
COCCNc1cc(C)nc2cc(-c3ccc(C)cc3)nn12 :: -4.32
CC(C)CCn1nnnc1C(C(C)C)N1CCC(C(N)=O)CC1 (stereo unspecified) :: -6.25
CCOC(=O)c1cccc(S(=O)(=O)N(CCO)Cc2cc3cc(OC)ccc3[nH]c2=O)c1 :: -6.73
Cc1cccc(-c2cc3nc(C)cc(NCCCn4ccnc4)n3n2)c1 :: 5.02

# context switch: different molecule, same inhibition
### Prompt Any idea what its inhibition is? The molecule is `Cc1cc(NCCCn2ccnc2)n2nc(C)c(-c3ccccc3)c2n1`
### Response -2.71
